Assay: AUC last in CD-1 mouse measured at 5 mg/kg, po for 1 to 24 hrs by HPLC-MS/MS analysis
Format: ADME, organism-based
Settings: in vivo, time 1-24 hrs
REPORTED_METRIC: AUC(0-t) (ng·h/mL)
Give bare numbers, in ng·h/mL.

# get_value(readout='AUC(0-t)', item= `C[C@]1(O)C[C@@H](c2nc(-c3ccc4ccc(-c5ccccc5)nc4c3)c3c(N)nccn32)C1` )
6770

----------
Assay: Elimination half life in CD-1 mouse at 5 mg/kg, iv measured after 1 to 24 hrs by HPLC-MS/MS analysis
Format: ADME, organism-based
Details: in vivo, time 1-24 hrs, read-out: beta t1/2 (converted)
REPORTED_METRIC: half-life (min)
One number for each entry, in min.

# get_value(readout='half-life', item= `Nc1nccn2c(C3CCC3)nc(-c3ccc4ccc(-c5ccccc5)nc4c3)c12` )
58.8
